B1: CCND1 (parent)
chain: PEAEENKQIIRKHAQTFVALCATD

- Variants of: B1
- assay-info: protein stability index of a GFP-peptide fusion (GPS, HEK-293T) (PSI 1-6); higher = more stable;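 further: lentivirally expressed fusions sorted by FACS into six bins by GFP to DsRed ratio, PSI derived from sequencing read proportions per bin multiplied by bin number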
- condition-info: c terminus: a fixed tail appended
Reported protein stability index values are given for each entry in this list.
endpoint-label: protein stability index

variant_description=E5K result=2.17
variant_description=Q15L result=2.49
variant_description=A3D result=3.27
variant_description=K7S result=2.53
variant_description=Q8H result=3.22
variant_description=N6E result=2.92
variant_description=E4R result=2.33
variant_description=K7D result=3.69
variant_description=I10W result=3.22
variant_description=E5V result=2.55
variant_description=E4F result=1.92
variant_description=T23M result=2.94
variant_description=P1S result=2.34
variant_description=I10L result=3.48
variant_description=L20E result=4.8
variant_description=A3I result=2.93
variant_description=A14H result=2.62
variant_description=V18H result=4.7
variant_description=K7Q result=2.98
variant_description=H13V result=3.02
variant_description=K12Y result=3.49
variant_description=E2F result=2.14

These measurements were taken from the supplement of paper PMC10567573.
